Assay type: in vivo, human
ASSAY SETUP: human, plasma, po, 4 mg, Median Tmax (range), fasted (reference), single 4-mg oral dose, immediate-release capsule, n = 15
PARAMETER MEASURED: Tmax (h)
Give just the number in h; leave the unit off.

Query :: Input "CC(C)C[C@H](NC(=O)CNC(=O)c1cc(Cl)ccc1Cl)B(O)O" , output reported Tmax.
Result :: 1.02

---

Format: in vivo, human
ASSAY SETUP: human, plasma, oral, 4 mg, Geometric mean (%CV) terminal half-life, day 1, fasted, N = 4
PARAMETER MEASURED: half-life (h)
Give just the number in h; leave the unit off.

Query :: Input CC(C)C[C@H](NC(=O)CNC(=O)c1cc(Cl)ccc1Cl)B(O)O [ixazomib] , output reported half-life.
Result :: 189
